The reported measurements were obtained from ChEMBL document CHEMBL1208720.

- System: Nakaseomyces glabratus
- method_summary: Antifungal activity against Candida glabrata 20/I after 48 hrs by broth microdilution assay
- Assay type: functional
- condition_info: Nakaseomyces glabratus, 20/I, 48 h
assay_endpoint: MIC

Qu. State its MIC: OC(Cn1cncn1)(Cn1cncn1)c1ccc(F)cc1F
Ans. > 50 µM

Qu. State its MIC: Cc1ccc(C(=S)NCc2ccc(Cl)cc2)c(O)c1
Ans. > 500 µM

Qu. State its MIC: Cc1ccc(CNC(=S)c2cc([N+](=O)[O-])ccc2O)cc1
Ans. > 500 µM

Qu. State its MIC: CC(C)(C)c1ccc(CNC(=S)c2ccccc2O)cc1
Ans. > 500 µM

// for each compound below, give its MIC
1. Cc1cccc(C(=S)NCc2ccc(Cl)cc2)c1O
2. Cc1ccc(C(=S)NCc2ccc(C(C)(C)C)cc2)c(O)c1

Ans.
["> 500 µM", "> 500 µM"]

----------
- Test system: Trichosporon asahii
- method_summary: Antifungal activity against Trichosporon asahii 1188 after 24 hrs by broth microdilution assay
- Format: functional
- condition_info: Trichosporon asahii, 1188, 24 h
Record form. Attribute: MIC. Fill in for each entry.
Give bare numbers, in µM.

Please review the entries below; each comes with its answer.
Qu. State its MIC: Oc1ccc(Cl)cc1C(=S)NCc1ccc(F)cc1
Ans. 7.81

Qu. State its MIC: Oc1ccc(Br)cc1C(=S)NCc1cccc(Br)c1
Ans. 15.6

// for each compound below, give its MIC
1. COc1ccc(C(=S)NCc2cccc(Cl)c2)c(O)c1
2. Cc1cccc(C(=S)NCc2ccc(Cl)cc2)c1O
3. CC(C)(C)c1ccc(CNC(=S)c2ccccc2O)cc1

Ans.
[31.2, 62.5, 250]

----------
- System: Trichosporon asahii
- method_summary: Antifungal activity against Trichosporon asahii 1188 after 24 hrs by broth microdilution assay
- Assay type: functional
- condition_info: Trichosporon asahii, 1188, 24 h
Record form. Attribute: MIC. Fill in for each entry.
Give bare numbers, in µM.

Please review the entries below; each comes with its answer.
Qu. State its MIC: Oc1ccccc1C(=S)NCc1ccc(F)cc1
Ans. 31.2

Qu. State its MIC: Cc1cccc(CNC(=S)c2ccccc2O)c1
Ans. 31.2

Qu. State its MIC: Oc1ccc(Br)cc1C(=S)NCc1ccc(Br)cc1
Ans. 3.9

Qu. State its MIC: Oc1cc(Cl)ccc1C(=S)NCc1ccc(Br)cc1
Ans. 7.81

// for each molecule below, give its MIC
1. Cc1ccc(CNC(=S)c2ccc(C)cc2O)cc1
2. Cc1ccc(CNC(=S)c2ccccc2O)cc1
3. Cc1ccc(C(=S)NCc2ccccc2)c(O)c1
4. COc1ccc(C(=S)NCc2ccccc2)c(O)c1

Ans.
[31.2, 31.2, 62.5, 250]
